Exercise: for every item that follows, state its recorded Encapsulation Efficiency %.
Assay: RNA encapsulation efficacy by Quant-IT Ribogreen kit
Assay type: physicochemical
Settings: LNP with cirRNA (SEQ ID NO: 1)
Answer format: numeric, % implied, no suffix.

Q: Which Encapsulation Efficiency % value belongs to CCCCC/C=C\CCOC(=O)CCCCCN(CCCCCCCCOC(=O)C(CCCCCC)CCCCCCCC)CCOC(=O)NCCN1CCOCC1 (stereo not shown) ?
Result: 88

Q: Entry "CCCCC/C=C\C/C=C\CCCCCCCCN(CCCCCCCC/C=C\C/C=C\CCCCC)CCOC(=O)NCCN1CCN(C)CC1" has what Encapsulation Efficiency %?
Result: 95

Q: Give the measured Encapsulation Efficiency % of "CCCCCCCOC(=O)CCCCCCCCCN(CCCCCCCCCC(=O)OCCCCCCC)CCOC(=O)NCCN1CCCC1" .
Result: 96

Q: Could you share which Encapsulation Efficiency % value was measured for "CCCCCCOC(=O)CCCCCCCCCCN(CCCCCCCCCCC(=O)OCCCCCC)CCOC(=O)NCCN(C)C" ?
Result: 95

Q: Entry CCCCCCCCC(CCCCCC)C(=O)OCCCCCCCCN(CCCCCCCCOC(=O)C(CCCCCC)CCCCCCCC)CCCOC(=O)NCCCN(CC)CC (stereo not shown) has what Encapsulation Efficiency %?
Result: 97

Q: Which Encapsulation Efficiency % reading was recorded for the compound "CCCCCCCCCC(=O)OCCCCCCCN(CCCCCCCOC(=O)CCCCCCCCC)CCOC(=O)NCCN1CCN(C)CC1" ?
Result: 95

Q: Look up Encapsulation Efficiency % for this compound: CCCCCCCCCCC(CCCCCCCC)COC(=O)CCCCCN(CCCCCC(=O)OCC(CCCCCCCC)CCCCCCCCCC)CCCOC(=O)NCCN1CCN(C)CC1 (stereo not shown)
Result: 91

====

System: BALB/C mice
Assay: In vivo expression, whole-body luminescence (IVIS)
Conditions: cirRNA (SEQ ID NO: 1) LNPs, BALB/C mice
readout-type: In vivo Expression (Whole Body)
Give a plain numeric answer without units written out.

Q: Consider the compound shown here: CCCCCCCCC(CCCCCC)C(=O)OCCCCCCCCN(CCCCCCCCOC(=O)C(CCCCCC)CCCCCCCC)CCOC(=O)NCCN(C)C (stereo not shown) What is its recorded In vivo Expression (Whole Body)?
Result: 1.21E+09

Q: Look at this compound and give its reported In vivo Expression (Whole Body). CCCCC/C=C\CCOC(=O)CCCCCN(CCCCCCCCOC(=O)C(CCCCCC)CCCCCCCC)CCOC(=O)NCCN(C)C (stereo not shown) [Lipid 189]
Result: 1.79E+06

Q: Need In vivo Expression (Whole Body) of "CCCCC/C=C\C/C=C\CCCCCCCCN(CCCCCCCC(=O)OC(CCCCCCCC)CCCCCCCC)CCOC(=O)NCCN1CCCC1" , thanks.
Result: 5.46E+08

Q: Given the compound "CCCCCCCCCCCOC(=O)CCCCCN(CCCCCCCC(=O)OC(CCCCCCCC)CCCCCCCC)CCOC(=O)NCCN1CCOCC1" , what is its reported In vivo Expression (Whole Body)?
Result: 1.88E+07

Q: // query In vivo Expression (Whole Body) value for entry "CCCCCCCOC(=O)CCCCCCCCCN(CCCCCCCCCC(=O)OCCCCCCC)CCOC(=O)NCCN1CCCCC1"
Result: 7.90E+06

Q: Tell me the measured In vivo Expression (Whole Body) of CCCCCCCCCCCOC(=O)CCCCCN(CCCCCCCCOC(=O)C(CCCCCC)CCCCCCCC)CCOC(=O)NCCN1CCCCC1 (stereo not shown) , please.
Result: 9.21E+07

Q: // In vivo Expression (Whole Body) lookup, key: "CCCCCCOC(=O)CCCCCCCCCCN(CCCCCCCCCCC(=O)OCCCCCC)CCOC(=O)NCCN1CCN(C)CC1"
Result: 1.30E+05

====

For each entry below, report its Encapsulation Efficiency % value.
Experiment: RNA encapsulation efficacy by Quant-IT Ribogreen kit
Type: physicochemical
Conditions: LNP with cirRNA (SEQ ID NO: 1)

Q: Item CCCCCCCCCC(=O)OCCCCCCCN(CCCCCCCCOC(=O)C(CCCCCC)CCCCCCCC)CCCOC(=O)NCCCn1ccnc1 (stereo not drawn) has what recorded Encapsulation Efficiency %?
Result: 77%

Q: Item under review: CCCCCCCCC(CCCCCCCC)OC(=O)CCCCCCCN(CCCCCCCCOC(=O)C(CCCCCC)CCCCCCCC)CCCOC(=O)NCCN1CCCC1 (stereo not drawn) . Reported Encapsulation Efficiency %?
Result: 97%

Q: Data request, read-out Encapsulation Efficiency %, for CCCCCCCCC(CCCCCC)C(=O)OCCCCCCCCN(CCCCCCCCOC(=O)C(CCCCCC)CCCCCCCC)CCCOC(=O)NCCN1CCCCCC1 (stereo not drawn)
Result: 95%

Q: # input compound: "CCCCCCOC(=O)CCCCCCCCCCN(CCCCCCCCCCC(=O)OCCCCCC)CCOC(=O)NCCCN(CC)CC" ; wanted: its Encapsulation Efficiency %
Result: 92%

Q: Name the reported Encapsulation Efficiency % value associated with the compound CCCCCCCCCCC(CCCCCCCC)COC(=O)CCCCCN(CCCCCC(=O)OCC(CCCCCCCC)CCCCCCCCCC)CCCOC(=O)NCCNC(C)C (stereo not drawn)
Result: 92%

Q: Given the entry CCCCCCCCCCC(CCCCCCCC)COC(=O)CCCCCN(CCCCCC(=O)OCC(CCCCCCCC)CCCCCCCCCC)CCCOC(=O)NCCCN(CC)CC (stereo not drawn) , report its measured Encapsulation Efficiency %.
Result: 92%

====

System: Alanine Aminotransferase (ALT)
Experiment: Liver enzyme elevation in serum, ALT
Type: in vivo
Conditions: cirRNA (SEQ ID NO: 1) LNPs; BALB/C mice; intravenous 0.5 MPK; 24 hours
readout-type: ALT in Sera (IU/L) 24 hours After 0.5 MPK Injection
Express the result in IU/L but write the number alone.

Q: # lookup: ALT in Sera (IU/L) 24 hours After 0.5 MPK Injection of CCCCCCCCC(CCCCCCCC)OC(=O)CCCCCCCN(CCCCCCCCOC(=O)C(CCCCCC)CCCCCCCC)CCOC(=O)NCCN1CCCC1 (stereo not drawn) [Lipid 148]
Result: 59.93

Q: Bench note: what ALT in Sera (IU/L) 24 hours After 0.5 MPK Injection did CCCCCCCCC(CCCCCCCC)OC(=O)CCCCCCCN(CCCCCCCCOC(=O)C(CCCCCC)CCCCCCCC)CCCOC(=O)NCCCN(C)C (stereo not drawn) [Lipid 348] show?
Result: 96.33

Q: Value lookup for ALT in Sera (IU/L) 24 hours After 0.5 MPK Injection; key = CCCCC/C=C\C/C=C\CCCCCCCCN(CCCCCCCC(=O)OC(CCCCCCCC)CCCCCCCC)CCOC(=O)NCCN(C)C [Lipid 129]
Result: 67.87

Q: Form field: reported ALT in Sera (IU/L) 24 hours After 0.5 MPK Injection of CCCCCCCCC(CCCCCC)C(=O)OCCCCCCCCN(CCCCCCCCOC(=O)C(CCCCCC)CCCCCCCC)CCCOC(=O)NCc1ncc[nH]1 (stereo not drawn) [Lipid 375]
Result: 120.33

Q: Endpoint output: ALT in Sera (IU/L) 24 hours After 0.5 MPK Injection of CCCCC/C=C\C/C=C\CCCCCCCCN(CCCCCCCC(=O)OC(CCCCCCCC)CCCCCCCC)CCOC(=O)NCCCN(CC)CC [Lipid 131] . Value?
Result: 44.57

Q: Give its ALT in Sera (IU/L) 24 hours After 0.5 MPK Injection value. Item: CCCCCCCCCCC(CCCCCCCC)COC(=O)CCCCCN(CCCCCCCCOC(=O)C(CCCCCC)CCCCCCCC)CCOC(=O)NCCN(C)C (stereo not drawn) [Lipid 51]
Result: 45.50

====

Experiment: LNP size and polydispersity index (PDI) by dynamic light scattering
Assay type: physicochemical
Details: LNP with cirRNA (SEQ ID NO: 1)
Method: Ionizable lipid, DSPC, Cholesterol and DMG-PEG 2000 were mixed at a molar ratio of 50:10:38.5:1.5 in absolute ethanol. Circular RNA and linear mRNA payloads were suspended in 25 mM Acetate Buffer (pH 4.5). […] The LNP size and polydispersity index (PDI), determined by dynamic light scattering (DLS), and zeta potential were measured by a Zetasizer machine (Malvern). […]
readout-type: PDI
Would you mind answering with just the numeric figure?

Q: Give the measured PDI of CCCCCCCCCCCOC(=O)CCCCCN(CCCCCCCCOC(=O)C(CCCCCC)CCCCCCCC)CCOC(=O)NCCN1CCCCC1 (centres unmarked) [Lipid 227] .
Result: 0.1088

Q: Value lookup for PDI; key = CCCCC/C=C\C/C=C\CCCCCCCCN(CCCCCCCC/C=C\CCCCCCCC)CCOC(=O)NCCN1CCN(C)CC1 [Lipid 70]
Result: 0.115

Q: Requested read-out: PDI. Entry: CCCCCCCCC(CCCCCC)C(=O)OCCCCCCCCN(CCCCCCCCOC(=O)C(CCCCCC)CCCCCCCC)CCCOC(=O)NCCCN(C)C (centres unmarked) [Lipid 378]
Result: 0.2637

Q: Request the reported PDI associated with CCCCCCOC(=O)CCCCCCCCCCN(CCCCCCCCCCC(=O)OCCCCCC)CCOC(=O)NCCN(C)C [Lipid 136]
Result: 0.146

Q: Which measured PDI value corresponds to CCCCC/C=C\C/C=C\CCCCCCCCN(CCCCCC(=O)OCC(CCCCCCCC)CCCCCCCCCC)CCOC(=O)NCc1ncc[nH]1 (centres unmarked) [Lipid 76] ?
Result: 0.1484

Q: What measured PDI goes with CCCCCCCCCC(=O)OCCCCCCCN(CCCCCCCCOC(=O)C(CCCCCC)CCCCCCCC)CCCOC(=O)NCCCN(C)C (centres unmarked) [Lipid 355] ?
Result: 0.2834

Q: Which PDI value belongs to CCCCC/C=C\C/C=C\CCCCCCCCN(CCCCCCCC(=O)OC(CCCCCCCC)CCCCCCCC)CCOC(=O)NCCCn1ccnc1 [Lipid 133] ?
Result: 0.0973

Q: Requested read-out: PDI. Entry: CCCCCCCCC(CCCCCCCC)OC(=O)CCCCCCCN(CCCCCCCCOC(=O)C(CCCCCC)CCCCCCCC)CCCOC(=O)NCCc1ncc[nH]1 (centres unmarked) [Lipid 349]
Result: 0.1452

Q: // query PDI value for entry CCCCCCCCCCCOC(=O)CCCCCN(CCCCCC(=O)OCCCCCCCCCCC)CCOC(=O)NCCN(C)C [Lipid 154]
Result: 0.1144

Q: Look up PDI: CCCCC/C=C\C/C=C\CCCCCCCCN(CCCCCCCC/C=C\CCCCCCCC)CCOC(=O)NCc1ncc[nH]1 [Lipid 68]
Result: 0.12

Q: Name the reported PDI value associated with the molecule CCCCCCCCCC(=O)OCCCCCCCN(CCCCCCCCOC(=O)C(CCCCCC)CCCCCCCC)CCCOC(=O)NCCN1CCCC1 (centres unmarked) [Lipid 357]
Result: 0.3136

Q: Record request: PDI value, item CCCCCCCCC(CCCCCC)C(=O)OCCCCCCCCN(CCCCCCCCCCC(=O)OCCCCCC)CCOC(=O)NCCN1CCN(C)CC1 (centres unmarked) [Lipid 46]
Result: 0.088

Q: # lookup: PDI of CCCCCCCCCC(=O)OCCCCCCCN(CCCCCCCCOC(=O)C(CCCCCC)CCCCCCCC)CCCOC(=O)NCCN1CCN(C)CC1 (centres unmarked) [Lipid 362]
Result: 0.3944

Q: Request the reported PDI associated with CCCCCCCCCCCOC(=O)CCCCCN(CCCCCCCC(=O)OC(CCCCCCCC)CCCCCCCC)CCOC(=O)NCCCn1ccnc1 [Lipid 163]
Result: 0.1586
